Every entry's value here was drawn from patent EP1984353B1.

- TGT: AuroraA-TPX2 (Homo sapiens, UniProt O14965)
- Construct: 20 µL of AuroraA-TPX2 KD GST; GST
- ASSAY DETAILS: AuroraA-TPX2 Homogeneous Time Resolved Fluorescent (HTRF) kinase assay
- Assay type: biochemical
- STATED CONDITIONS: read-out: average activity in the Aurora kinase A HTRF assay
pIC50: −log10 of the molar value. Structures can show the parent of a compound that is named as a salt.
MEASUREMENT LABEL: pIC50

# COMPOUND, TGT, pIC50
measured = [
    ("c1ccc(-c2nnc(Nc3cnc(Oc4ccccc4-c4ccncc4)nc3)c3ccccc23)cc1", "AuroraA-TPX2 (Homo sapiens, UniProt O14965)", "≥ 7.00"),
    ("CNc1nccc(-c2cccnc2Oc2ccc(Nc3nnc(-c4cc(Cl)cs4)c4ccccc34)cc2)n1", "AuroraA-TPX2 (Homo sapiens, UniProt O14965)", "≥ 6.00"),
]

Q: Recorded pIC50 of COC(=O)c1cc(-c2ccccc2)nnc1Nc1ccc(Oc2ncccc2-c2ccnc(N)n2)cc1 , please.
A: ≥ 6.00

Q: Recorded pIC50 of Nc1nccc(-c2cccnc2Oc2ccc(Nc3nnc(-c4ccc(CN5CCCC5)cc4)c4ccccc34)cc2)n1 , please.
A: ≥ 6.00

Q: Recorded pIC50 of O=P(O)(O)OCCCNc1nccc(-c2cccnc2Oc2ccc(Nc3nnc(-c4ccccc4)c4ccccc34)cc2)n1 [Example Method F, phosphate dihydrochloride] , please.
A: ≥ 7.00

Q: Recorded pIC50 of NC(=O)c1n[nH]cc1-c1cccnc1Oc1ccc(Nc2nnc(-c3ccccc3)c3ccccc23)cc1 , please.
A: ≥ 6.00

Q: Recorded pIC50 of Nc1ncc(F)c(-c2cccnc2Oc2ccc(Nc3nnc(-c4ccccc4)c4ccccc34)cc2)n1 , please.
A: ≥ 7.00

====

- TGT: AuroraA-TPX2 (Homo sapiens, UniProt O14965)
- Construct: 20 µL of AuroraA-TPX2 KD GST; GST
- Sequence (O14965 133-383 limits assumed): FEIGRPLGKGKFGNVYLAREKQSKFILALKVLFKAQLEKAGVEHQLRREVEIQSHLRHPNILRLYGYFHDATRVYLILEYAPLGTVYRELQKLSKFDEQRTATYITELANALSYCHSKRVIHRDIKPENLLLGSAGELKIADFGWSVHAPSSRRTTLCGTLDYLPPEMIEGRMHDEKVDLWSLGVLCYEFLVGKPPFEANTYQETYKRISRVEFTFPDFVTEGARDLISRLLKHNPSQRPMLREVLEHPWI
- Sequence (Q9ULW0 1-43 partner limits assumed): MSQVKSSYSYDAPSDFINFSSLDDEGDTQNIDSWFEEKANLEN
- ASSAY DETAILS: AuroraA-TPX2 Homogeneous Time Resolved Fluorescent (HTRF) kinase assay
- Type: biochemical
- STATED CONDITIONS: read-out: average inhibitory activity (IC50) in the Aurora kinase A HTRF assay
pIC50: −log10 of the molar value.
MEASUREMENT LABEL: pIC50

Some molecules with recorded pIC50:
# MOLECULE, TGT, pIC50
data = [
    ("CNc1cc(-c2cccnc2Oc2ccc(Nc3nnc(-c4ccc(F)cc4)c4ccccc34)cn2)ccn1 [Example 60]", "AuroraA-TPX2 (Homo sapiens, UniProt O14965)", "> 6.30"),
    ("CNc1nccc(-c2cccnc2Oc2ccc(Nc3nnc(N4CCCCC4)c4ccccc34)cn2)n1 [Example 68]", "AuroraA-TPX2 (Homo sapiens, UniProt O14965)", "> 6.30"),
    ("c1ccc(-c2nnc(Nc3ccc(Oc4ncccc4-c4ccnc5[nH]ccc45)cc3)c3ccccc23)cc1 [Example 61]", "AuroraA-TPX2 (Homo sapiens, UniProt O14965)", "> 6.30"),
]

Q: Recorded pIC50 of Nc1nccc(-c2cccnc2Oc2ccc(Nc3nnc(N4CCCCC4)c4ccccc34)cc2)n1 [Example 67] , please.
A: > 6.30
